- assayTarget: hBACE 1 (Homo sapiens, UniProt P56817)
- Sequence (P56817 46-501): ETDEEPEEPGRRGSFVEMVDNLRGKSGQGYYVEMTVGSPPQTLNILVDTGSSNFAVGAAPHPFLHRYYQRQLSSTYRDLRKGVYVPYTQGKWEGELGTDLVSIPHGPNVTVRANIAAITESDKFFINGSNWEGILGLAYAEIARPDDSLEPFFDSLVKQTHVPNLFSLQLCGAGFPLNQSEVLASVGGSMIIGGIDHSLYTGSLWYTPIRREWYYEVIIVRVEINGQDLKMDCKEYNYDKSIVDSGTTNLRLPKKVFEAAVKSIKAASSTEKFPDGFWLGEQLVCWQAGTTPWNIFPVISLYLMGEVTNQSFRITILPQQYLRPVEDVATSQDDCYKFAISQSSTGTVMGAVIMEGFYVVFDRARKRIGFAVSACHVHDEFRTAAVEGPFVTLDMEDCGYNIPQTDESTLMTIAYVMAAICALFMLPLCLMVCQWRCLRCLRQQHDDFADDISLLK
- measurementNotes: BACE 1 FRET inhibition assay
- Assay type: biochemical
- testSettings: read-out: hBACE 1 IC50 (μM) ± SD; mean ± SD, n = 3; human BACE 1; FRET assay
assayEndpoint: IC50 (µM)
Answers are plain numbers, in µM.

[[record]]
structuresmilesstring = "[H]/N=C(/N)NN=C(/C=C/c1ccc(F)c(F)c1)c1cn(Cc2ccc(C(C)(C)C)cc2)c2ccccc12"
recordedmeasurement = 76.9

[[record]]
structuresmilesstring = "[H]/N=C(/N)NN=C(/C=C/c1ccc(F)cc1F)c1cn(Cc2ccccc2)c2ccccc12"
recordedmeasurement = 12.8


Now for a further molecule.
Incoming: Reported IC50 for `[H]/N=C(/N)NN=C(/C=C/c1ccc(C(F)(F)F)cc1)c1cn(Cc2ccc(C(F)(F)F)cc2)c2ccccc12` : what is it?
Outgoing: 222

====

- assayTarget: hBACE 1 (Homo sapiens, UniProt P56817)
- measurementNotes: BACE 1 FRET inhibition assay
- Format: biochemical
- testSettings: hBACE 1 IC50 (μM) ± SD, mean ± SD, n = 3; human BACE 1; FRET assay
Can you tell me IC50 for the items I'm about to list?
Numbers only, in µM.

[[record]]
structuresmilesstring = "[H]/N=C(/N)NN=C(/C=C/c1ccccc1)c1cn(Cc2ccc(F)cc2C(F)(F)F)c2ccccc12"
recordedmeasurement = 141

[[record]]
structuresmilesstring = "[H]/N=C(/N)NN=C(/C=C/c1ccccc1)c1cn(Cc2ccc(Cl)cc2)c2ccccc12"
recordedmeasurement = 213


Now for a further compound.
Incoming: Requested read-out IC50, target or system hBACE 1 (Homo sapiens, UniProt P56817), entry `[H]/N=C(/N)NN=C(/C=C/c1cccc(OC)c1OC)c1cn(Cc2ccccc2)c2ccccc12`
Outgoing: 134

Data origin, for the record: paper PMC11287240
